biological target: ROCKII or ROKα (Homo sapiens, UniProt O75116); construct: purchased Upstate 14-451; experiment: Determination of Rho kinase inhibition (γ33P ATP, Streptavidin Flash Plate); assay type: biochemical; settings: ATP 40 μM, enzyme 0.1 ng/μl, 20 min at room temperature, tested as salt or free base obtained in the examples
Sequence (O75116 whole entry): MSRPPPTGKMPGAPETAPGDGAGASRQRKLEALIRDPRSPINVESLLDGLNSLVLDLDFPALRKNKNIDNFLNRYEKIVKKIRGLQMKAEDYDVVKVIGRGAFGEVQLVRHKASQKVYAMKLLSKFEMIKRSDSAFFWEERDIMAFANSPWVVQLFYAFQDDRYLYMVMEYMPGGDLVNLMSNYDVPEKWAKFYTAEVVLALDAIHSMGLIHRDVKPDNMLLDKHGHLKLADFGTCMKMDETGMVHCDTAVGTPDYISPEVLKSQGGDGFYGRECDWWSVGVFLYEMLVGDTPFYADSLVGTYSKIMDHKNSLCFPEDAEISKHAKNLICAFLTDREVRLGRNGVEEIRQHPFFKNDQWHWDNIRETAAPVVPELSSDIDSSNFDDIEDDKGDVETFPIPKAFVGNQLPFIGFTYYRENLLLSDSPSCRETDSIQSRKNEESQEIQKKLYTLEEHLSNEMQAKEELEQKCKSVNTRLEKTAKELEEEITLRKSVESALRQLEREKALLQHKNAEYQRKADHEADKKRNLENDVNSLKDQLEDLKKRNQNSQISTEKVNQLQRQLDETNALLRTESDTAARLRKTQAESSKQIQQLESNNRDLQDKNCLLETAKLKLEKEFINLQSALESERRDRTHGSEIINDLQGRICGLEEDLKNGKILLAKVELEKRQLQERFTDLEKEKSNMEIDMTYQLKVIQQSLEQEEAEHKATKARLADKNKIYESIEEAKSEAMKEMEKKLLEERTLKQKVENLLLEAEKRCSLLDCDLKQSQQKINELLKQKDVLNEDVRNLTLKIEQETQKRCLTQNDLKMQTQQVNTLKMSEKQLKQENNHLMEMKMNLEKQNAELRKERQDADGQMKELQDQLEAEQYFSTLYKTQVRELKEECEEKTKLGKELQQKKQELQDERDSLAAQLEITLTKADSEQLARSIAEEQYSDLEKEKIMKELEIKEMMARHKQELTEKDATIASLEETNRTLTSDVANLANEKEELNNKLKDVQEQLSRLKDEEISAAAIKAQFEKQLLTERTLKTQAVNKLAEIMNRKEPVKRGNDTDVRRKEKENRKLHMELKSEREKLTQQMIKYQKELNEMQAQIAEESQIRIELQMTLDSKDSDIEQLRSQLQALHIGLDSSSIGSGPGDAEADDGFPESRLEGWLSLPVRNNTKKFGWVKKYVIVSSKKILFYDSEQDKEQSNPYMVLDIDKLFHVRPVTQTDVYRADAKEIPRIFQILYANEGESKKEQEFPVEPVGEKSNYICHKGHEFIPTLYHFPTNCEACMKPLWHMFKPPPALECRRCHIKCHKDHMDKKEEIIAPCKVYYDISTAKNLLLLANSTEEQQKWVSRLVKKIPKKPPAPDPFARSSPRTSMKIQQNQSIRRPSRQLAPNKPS
quantity-kind: pIC50

INSERT INTO assay_data (molecule, result) VALUES
  ('CCCN1CCC(Oc2cc3cc[nH]c(=O)c3cc2F)CC1', '+++++ (6.0 ≦ pIC50)'),
  ('Cc1cc2c(=O)[nH]cc(C)c2cc1OC1CCNCC1', '+++++ (6.0 ≦ pIC50)'),
  ('Cc1cc2c(=O)[nH]ccc2cc1OC1CCN(CC2CCOC2)CC1 (centres unmarked)', '+++++ (6.0 ≦ pIC50)'),
  ('Cc1cc2c(=O)[nH]ccc2cc1OC1CCN(Cc2ccccn2)CC1', '+++++ (6.0 ≦ pIC50)'),
  ('O=c1[nH]cc(Br)c2cc(OC3CCNCC3)ccc12', '+++++ (6.0 ≦ pIC50)'),
  ('O=c1[nH]ccc2cc(OC[C@H]3CCCNC3)ccc12', '++++ (5.0 ≦ pIC50 < 6.0)'),
  ('Oc1nccc2cc(OC3CCNCC3)c(Cl)cc12', '+++++ (6.0 ≦ pIC50)'),
  ('O=c1[nH]ccc2c(Cl)c(OC3CCNCC3)ccc12', '+++++ (6.0 ≦ pIC50)'),
  ('CN1CCC(Oc2ccc3c(=O)[nH]ccc3c2)CC1', '+++++ (6.0 ≦ pIC50)'),
  ('CCc1c[nH]c(=O)c2cc(F)c(OC3CCNCC3)cc12', '++++ (5.0 ≦ pIC50 < 6.0)'),
  ('CC(C)N1CCC(Oc2cc3ccnc(O)c3cc2Cl)CC1', '+++++ (6.0 ≦ pIC50)'),
  ('O=c1[nH]ccc2cc(OC3CCNCC3)c(F)cc12', '+++++ (6.0 ≦ pIC50)'),
  ('O=c1[nH]ccc2cc(OC3CCNCC3)ccc12', '+++++ (6.0 ≦ pIC50)'),
  ('Cc1cc2c(=O)[nH]ccc2cc1OC1CCN(Cc2ccc(S(C)(=O)=O)cc2)CC1', '+++++ (6.0 ≦ pIC50)'),
  ('Cc1cc2c(=O)[nH]ccc2cc1OC1CCN(Cc2ccsc2)CC1', '+++++ (6.0 ≦ pIC50)'),
  ('CCc1c[nH]c(=O)c2ccc(OC3CCNCC3)cc12', '+++++ (6.0 ≦ pIC50)'),
  ('O=c1[nH]ccc2cc(OC3CCNCC3)c(Br)cc12', '+++++ (6.0 ≦ pIC50)'),
  ('O=c1[nH]ccc2cc(OC3CCN(CC4CC4)CC3)ccc12', '+++++ (6.0 ≦ pIC50)'),
  ('COc1cc2c(=O)[nH]ccc2cc1OC1CCNCC1', '++++ (5.0 ≦ pIC50 < 6.0)'),
  ('Cc1c[nH]c(=O)c2ccc(OC3CCNCC3)cc12', '+++++ (6.0 ≦ pIC50)');
